Give TGI for every item shown.
System: SK-MEL-2 melanoma
procedure details: NCI tumour cell line growth inhibition, 48 h

Asked: What measured TGI is associated with COc1cc2c(cc1OC)C13CCN4CC5=CCOC(CC(=O)O)C(C5CC41)C3N2 (stereo unspecified) on SK-MEL-2 melanoma?
Given back: > 100 µM

Asked: What measured TGI is associated with O=C(C=P(c1ccccc1)(c1ccccc1)c1ccccc1)C12CC3CC(CC(C3)C1)C2 on SK-MEL-2 melanoma?
Given back: 29.5 µM

Asked: What measured TGI is associated with CCN(CC)c1ccc(NC(C(=O)c2ccccc2)c2ccccc2)cc1 (stereo unspecified) on SK-MEL-2 melanoma?
Given back: 16.8 µM

Asked: What measured TGI is associated with CCC(=O)Sc1ccccc1C(=O)Nc1ccc(Cl)cc1 on SK-MEL-2 melanoma?
Given back: > 100 µM

Asked: What measured TGI is associated with CCOc1ccc(NC(=O)Nc2cc(C(C)C)ccc2C)cc1 on SK-MEL-2 melanoma?
Given back: 55.6 µM

Asked: What measured TGI is associated with COc1cc2c(cc1O)[C@H](C)C(c1ccc(Cl)cc1)O2 (stereo partly specified) on SK-MEL-2 melanoma?
Given back: 56 µM
